Biological target: human NMUR2 receptor (Homo sapiens)
Sequence (Q9GZQ4 whole entry): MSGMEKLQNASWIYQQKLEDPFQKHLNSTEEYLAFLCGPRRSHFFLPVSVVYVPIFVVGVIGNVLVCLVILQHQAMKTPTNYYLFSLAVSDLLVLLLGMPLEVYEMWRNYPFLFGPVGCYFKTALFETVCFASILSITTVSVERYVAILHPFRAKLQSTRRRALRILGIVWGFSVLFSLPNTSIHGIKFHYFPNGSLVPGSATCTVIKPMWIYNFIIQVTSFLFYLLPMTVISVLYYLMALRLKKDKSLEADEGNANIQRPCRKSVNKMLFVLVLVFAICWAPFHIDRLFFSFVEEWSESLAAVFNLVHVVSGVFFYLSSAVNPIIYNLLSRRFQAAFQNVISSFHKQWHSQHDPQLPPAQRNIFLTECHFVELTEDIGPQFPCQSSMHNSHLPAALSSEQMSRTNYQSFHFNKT
Assay: IP1 Gq HTRF assay, activation of human NMUR2 in human plasma
Type: cell-based
Design: expressed in transfected cells; host or cells: CHO-K1
Details: CHO-K1 cells expressing human NMUR2, 100% human plasma; read-out: EC50 (hNMUR2) human plasma
Kindly supply the reported pEC50 values for the records listed here.
Scale for pEC50: -log10 of concentration given in mol/L; no unit attached.

Input: Consider the compound shown here: CCCC[C@H](NC(=O)[C@H](CC(C)C)N(C)C(=O)[C@H](Cc1ccccc1)NC(=O)[C@H](Cc1ccc(O)cc1)NC(=O)CN1CCN(CCNC(=O)CN(C)C(=O)CN(C)C(=O)CN(C)C(=O)CN(C)C(=O)CN(C)C(=O)CN(C)C(=O)CN(C)C(=O)CN(C)C(=O)CN(C)C(=O)CN(C)C(=O)CN(C)C(=O)CN(C)C(=O)CC[C@H](NC(=O)CC[C@H](NC(=O)CC[C@H](NC(=O)CCCCCCCCCCCCCCCCC(=O)O)C(=O)O)C(=O)O)C(=O)O)CC1)C(=O)N[C@@H](CCN)C(=O)N1CCC[C@H]1C(=O)N[C@@H](CCCNC(=N)N)C(=O)NCC(N)=O What is its recorded pEC50?
Output: 8.16

Input: Consider the compound shown here: CCCC[C@H](NC(=O)[C@H](CC(C)C)N(C)C(=O)[C@H](Cc1ccccc1)NC(=O)[C@H](Cc1ccc(O)cc1)NC(=O)CN1CCN(C(=O)CN(C)C(=O)CN(C)C(=O)CN(C)C(=O)CN(C)C(=O)CN(C)C(=O)CN(C)C(=O)CN(C)C(=O)CN(C)C(=O)CN(C)C(=O)CN(C)C(=O)CN(C)C(=O)CN(C)C(=O)CC[C@H](NC(=O)CC[C@H](NC(=O)CC[C@H](NC(=O)CCCCCCCCCCCCCCCCCCC(=O)O)C(=O)O)C(=O)O)C(=O)O)CC1)C(=O)N[C@@H](CCCNC(=N)N)C(=O)N1CCC[C@H]1C(=O)N[C@@H](CCCNC(=N)N)C(=O)NCC(N)=O What is its recorded pEC50?
Output: 8.28

Input: Consider the compound shown here: CCCC[C@H](NC(=O)[C@H](CC(C)C)N(C)C(=O)[C@H](Cc1ccccc1)NC(=O)[C@H](Cc1ccc(O)cc1)NC(=O)CN1CCN(CCNC(=O)CN(C)C(=O)CN(C)C(=O)CN(C)C(=O)CN(C)C(=O)CN(C)C(=O)CN(C)C(=O)CN(C)C(=O)CN(C)C(=O)CN(C)C(=O)CN(C)C(=O)CN(C)C(=O)CN(C)C(=O)CC[C@H](NC(=O)CC[C@H](NC(=O)CC[C@H](NC(=O)CCCCCCCCCCCCCCCCCCC(=O)O)C(=O)O)C(=O)O)C(=O)O)CC1)C(=O)N[C@@H](CCN)C(=O)N(C)[C@@H](C)C(=O)N[C@@H](CCCNC(=N)N)C(=O)NCC(N)=O What is its recorded pEC50?
Output: 7.92

Input: Consider the compound shown here: CCCC[C@H](NC(=O)[C@H](CC(C)C)N(C)C(=O)[C@H](Cc1ccccc1)NC(=O)[C@H](Cc1ccc(O)cc1)NC(=O)CN1CCN(C(=O)CN(C)C(=O)CN(C)C(=O)CN(C)C(=O)CN(C)C(=O)CN(C)C(=O)CN(C)C(=O)CN(C)C(=O)CN(C)C(=O)CN(C)C(=O)CN(C)C(=O)CN(C)C(=O)CN(C)C(=O)CC[C@H](NC(=O)CC[C@H](NC(=O)CC[C@H](NC(=O)CCCCCCCCCCCCCCCCC(=O)O)C(=O)O)C(=O)O)C(=O)O)CC1)C(=O)N[C@@H](CCCNC(=N)N)C(=O)N1CCC[C@H]1C(=O)N[C@@H](CCCNC(=N)N)C(=O)NCC(N)=O What is its recorded pEC50?
Output: 8.28

Input: Consider the compound shown here: CCCC[C@H](NC(=O)[C@H](CC(C)C)N(C)C(=O)[C@H](Cc1ccccc1)NC(=O)[C@H](Cc1ccc(O)cc1)NC(=O)CN1CCN(CCNC(=O)CN(C)C(=O)CN(C)C(=O)CN(C)C(=O)CN(C)C(=O)CN(C)C(=O)CN(C)C(=O)CN(C)C(=O)CN(C)C(=O)CN(C)C(=O)CN(C)C(=O)CN(C)C(=O)CN(C)C(=O)CC[C@H](NC(=O)CC[C@H](NC(=O)CC[C@H](NC(=O)CCCCCCCCCCCCCCCCC(=O)O)C(=O)O)C(=O)O)C(=O)O)CC1)C(=O)N[C@@H](CCCN)C(=O)N(C)[C@@H](C)C(=O)N[C@@H](CCCNC(=N)N)C(=O)NCC(N)=O What is its recorded pEC50?
Output: 7.92

Input: Consider the compound shown here: CCCC[C@H](NC(=O)[C@H](CC(C)C)N(C)C(=O)[C@H](Cc1ccccc1)NC(=O)[C@H](Cc1ccc(O)cc1)NC(=O)CN1CCN(CCNC(=O)CN(C)C(=O)CN(C)C(=O)CN(C)C(=O)CN(C)C(=O)CN(C)C(=O)CN(C)C(=O)CN(C)C(=O)CN(C)C(=O)CN(C)C(=O)CN(C)C(=O)CN(C)C(=O)CN(C)C(=O)CC[C@H](NC(=O)CC[C@H](NC(=O)CC[C@H](NC(=O)CCCCCCCCCCCCCCCCC(=O)O)C(=O)O)C(=O)O)C(=O)O)CC1)C(=O)N[C@@H](CCN)C(=O)N(C)[C@@H](C)C(=O)N[C@@H](CCCNC(=N)N)C(=O)NCC(N)=O What is its recorded pEC50?
Output: 8.01

Input: Consider the compound shown here: CCCC[C@H](NC(=O)[C@H](CC(C)C)N(C)C(=O)[C@H](Cc1ccccc1)NC(=O)[C@H](Cc1ccc(O)cc1)NC(=O)CN1CCN(CCNC(=O)CN(C)C(=O)CN(C)C(=O)CN(C)C(=O)CN(C)C(=O)CN(C)C(=O)CN(C)C(=O)CN(C)C(=O)CN(C)C(=O)CN(C)C(=O)CN(C)C(=O)CN(C)C(=O)CN(C)C(=O)CC[C@H](NC(=O)CC[C@H](NC(=O)CC[C@H](NC(=O)CCCCCCCCCCCCCCCCCCC(=O)O)C(=O)O)C(=O)O)C(=O)O)CC1)C(=O)N[C@@H](CCN)C(=O)N1CCC[C@H]1C(=O)N[C@@H](CCCNC(=N)N)C(=O)NCC(N)=O What is its recorded pEC50?
Output: 8.05

###

Kindly supply the reported pEC50 values for the records listed here.
Biological target: UniProt Q9GZQ4
Assay: IP1 Gq HTRF assay, activation of human NMUR2 in buffer
Assay type: cell-based
Set-up: expressed in transfected cells; host or cells: CHO-K1
Conditions: CHO-K1 cells expressing human NMUR2, stimulation buffer with 0.1% BSA; read-out: EC50 (hNMUR2) buffer
Scale for pEC50: -log10 of concentration given in mol/L; no unit attached.

Input: Consider the molecule shown here: CCCC[C@H](NC(=O)[C@H](CC(C)C)N(C)C(=O)[C@H](Cc1ccccc1)NC(=O)[C@H](Cc1ccc(O)cc1)NC(=O)CN1CCN(C(=O)CN(C)C(=O)CN(C)C(=O)CN(C)C(=O)CN(C)C(=O)CN(C)C(=O)CN(C)C(=O)CN(C)C(=O)CN(C)C(=O)CN(C)C(=O)CN(C)C(=O)CN(C)C(=O)CN(C)C(=O)CC[C@H](NC(=O)CC[C@H](NC(=O)CC[C@H](NC(=O)CCCCCCCCCCCCCCCCC(=O)O)C(=O)O)C(=O)O)C(=O)O)CC1)C(=O)N[C@@H](CCCNC(=N)N)C(=O)N1CCC[C@H]1C(=O)N[C@@H](CCCNC(=N)N)C(=O)NCC(N)=O [Compound 77] What is its recorded pEC50?
Output: 9.10

Input: Consider the molecule shown here: CCCC[C@H](NC(=O)[C@H](CC(C)C)N(C)C(=O)[C@H](Cc1ccccc1)NC(=O)[C@H](Cc1ccc(O)cc1)NC(=O)CN1CCN(C(=O)CN(C)C(=O)CN(C)C(=O)CN(C)C(=O)CN(C)C(=O)CN(C)C(=O)CN(C)C(=O)CN(C)C(=O)CN(C)C(=O)CN(C)C(=O)CN(C)C(=O)CN(C)C(=O)CN(C)C(=O)CC[C@H](NC(=O)CC[C@H](NC(=O)CC[C@H](NC(=O)CCCCCCCCCCCCCCCCCCC(=O)O)C(=O)O)C(=O)O)C(=O)O)CC1)C(=O)N[C@@H](CCCNC(=N)N)C(=O)N1CCC[C@H]1C(=O)N[C@@H](CCCNC(=N)N)C(=O)NCC(N)=O [Compound 78] What is its recorded pEC50?
Output: 8.92
